Exercise: state measured protection from cytokine-induced ATP loss for each of the compounds provided.
test: preservation of ATP in cytokine-treated beta cells – cell-based, ATP luminescence, single point, primary screen (AID 488910); settings: INS-1E cytokine-induced death, 48 h, at 10 µM, stronger effect = higher value, normalised: neutral wells 0, positive control 100
About 25 (0.1%) of roughly 20,000 compounds were called active. The list comes from a sample in which actives are over-represented; it also holds close analogues and randomly drawn compounds.
One number for each entry, in %.

// below: answered compounds
What the record says about "COc1ccc(NC(=O)N(C)C[C@@H]2Oc3ccc(NC(=O)CCCN(C)C)cc3CC(=O)N([C@H](C)CO)C[C@H]2C)cc1" : protection from cytokine-induced ATP loss is 7.7

What the record says about "C[C@@H]1CN([C@H](C)CO)C(=O)Cc2cc(NC(=O)CCCCCC(=O)Nc3ccccc3N)ccc2O[C@H]1CN(C)S(=O)(=O)c1ccc(F)cc1" : protection from cytokine-induced ATP loss is 9.28

What the record says about "C[C@H]1CN([C@@H](C)CO)C(=O)Cc2cc(NC(=O)NC3CCCCC3)ccc2O[C@@H]1CN(C)Cc1ccc(Oc2ccccc2)cc1" : protection from cytokine-induced ATP loss is -49.9

What the record says about "Cc1noc(C)c1S(=O)(=O)N(C)C[C@@H]1Oc2c(NS(=O)(=O)c3cn(C)cn3)cccc2C(=O)N([C@@H](C)CO)C[C@H]1C" : protection from cytokine-induced ATP loss is 4.74

Go through the list and state protection from cytokine-induced ATP loss for each entry.
1. C[C@H]1CN([C@@H](C)CO)C(=O)Cc2cc(NC(=O)Nc3ccc(F)cc3)ccc2O[C@H]1CN(C)S(=O)(=O)c1ccc(F)cc1
2. C[C@H]1CN([C@@H](C)CO)C(=O)c2cc(NS(=O)(=O)c3ccc(Cl)cc3)ccc2O[C@H]1CN(C)Cc1ccc(Oc2ccccc2)cc1
3. C[C@@H]1CN([C@@H](C)CO)C(=O)c2cccc(NC(=O)C3CC3)c2O[C@@H]1CN(C)C

Response:
1: -1.52; 2: -11.4; 3: 3.84
